# Test system: viable cells in culture
# ASSAY_SUMMARY: Cell viability assay (CellTiter-Glo Luminescent Cell Viability Assay, ATP quantitation, percent of vehicle control)
The threshold is inclusive: Average Cell Viability after 24 Hours (% DMSO) of exactly 70 % DMSO counts as Satisfied; values below receive Not satisfied.

>>> cat("O=C(CSc1nnc(-c2ccncc2)o1)N1CCN(c2ccccc2F)CC1")
"Satisfied"
>>> cat("CC(=O)Oc1ccccc1C(=O)Nc1ccc(F)cc1F")
"Not satisfied"
>>> cat("CN(CC1CCCO1)S(=O)(=O)c1ccc(C(=O)Nc2nc(-c3ccccn3)cs2)cc1 (stereo not drawn)")
"Satisfied"
>>> cat("O=C(Nc1ccc(Cl)c(Cl)c1)Nc1nnc(CSc2ccccc2)s1")
"Not satisfied"
>>> cat("COC(=O)COc1ccc(NC(=O)CSc2ccc(Cl)cc2)cc1")
"Not satisfied"
>>> cat("COC(=O)COc1ccc(NC(=O)c2ccccc2I)cc1")
"Not satisfied"
>>> cat("CC(Oc1cccc2ccccc12)C(=O)NN=Cc1cccc2cccnc12 (stereo not drawn)")
"Satisfied"
>>> cat("O=C(CS(=O)(=O)c1ccccc1)Nc1nc(-c2ccccn2)cs1")
"Satisfied"
